These measurements were taken from paper PMC6271143.

assay: Antileishmanial activity assay (growth inhibition, absorbance at 600 nm) against L. amazonensis promastigotes; type: cell-based, Leishmania amazonensis (strain MHOM/BR/1989/BA199); conditions: Balb/c, mouse (macrophages); Leishmania amazonensis (promastigotes), pH 7; CC50 macrophages / IC50 L. amazonensis; read-out: b SI (selective index): ratio between CC50 in murine macrophages and IC50 in L. amazonensis (WT)
endpoint label: selectivity ratio at 72 h

> print(dat)
                  smiles             endpoint.label  reading
1  CC(=O)Oc1ccccc1C(=O)O  selectivity ratio at 72 h      < 1

Recorded selectivity ratio at 72 h for `CC(=O)Oc1cccc(C(=O)O)c1` , please? < 1
